# Assay system: Human LDHA (Homo sapiens (Human))
# Experimental details: human LDHA primary biochemical assay (resazurin/diaphorase coupled, fluorescence)
# Measurement conditions: read-out: Inhibitory activity IC50
Recorded IC50, one value per entry.

- Molecule: "NS(=O)(=O)c1ccc(Cc2c(CC3CC3(F)F)nn(-c3nc(C(=O)O)cs3)c2-c2cccc(-c3ccccc3)c2)cc1 (stereo not shown) [Compound 208]"
  Assay system: "Human LDHA (Homo sapiens (Human))"
  IC50: "1 to 57 µM"
- Molecule: "N#CCc1cc(-c2ccc(F)c(F)c2)nn1-c1nc(C(=O)O)cs1 [Compound 74]"
  Assay system: "Human LDHA (Homo sapiens (Human))"
  IC50: "1 to 57 µM"
- Molecule: "Cc1ccc(-c2cc(-c3c(Cc4ccc(S(N)(=O)=O)cc4F)c(CC4CC4)nn3-c3nc(C(=O)O)cs3)ccc2F)s1 [Compound 226]"
  Assay system: "Human LDHA (Homo sapiens (Human))"
  IC50: "> 57 µM"
- Molecule: "NS(=O)(=O)c1ccc(Cc2cn(-c3nc(C(=O)O)cs3)nc2-c2ccccc2)cc1 [Compound 19]"
  Assay system: "Human LDHA (Homo sapiens (Human))"
  IC50: "< 0.1 µM"

----------
# Assay system: UniProtKB P00338
# Experimental details: human LDHA primary biochemical assay (resazurin/diaphorase coupled, fluorescence)
# Measurement conditions: LDHA inhibitory activity, activity level based on IC50 (Table 7)
# Lookup of reported IC50 keyed by entry

- Compound structure string: "Cc1ccc(-c2nn(-c3nc(C(=O)O)cs3)c(C3CC3)c2Cc2ccc(S(N)(=O)=O)cc2)cc1-c1cccc(N)c1"
  Assay system: "UniProtKB P00338"
  IC50: "< 100 nM"
- Compound structure string: "NS(=O)(=O)c1ccc(Cc2c(-c3cccc(N4CCC(F)(F)C4)c3)nn(-c3nc(C(=O)O)cs3)c2CC2CC2)cc1F"
  Assay system: "UniProtKB P00338"
  IC50: "1000 to 57000 nM"
- Compound structure string: "CCc1cccc(-c2cc(-c3nn(-c4nc(C(=O)O)cs4)cc3Cc3ccc(S(N)(=O)=O)cc3)ccc2C)c1"
  Assay system: "UniProtKB P00338"
  IC50: "100 to 1000 nM"
- Compound structure string: "Cc1cc(-c2cc(-c3nn(-c4nc(C(=O)O)cs4)cc3Cc3ccc(S(N)(=O)=O)cc3)ccc2C)ccc1F"
  Assay system: "UniProtKB P00338"
  IC50: "100 to 1000 nM"
- Compound structure string: "NS(=O)(=O)c1cccc(Cc2c(-c3ccc(F)c(-c4cccc(F)c4)c3)nn(-c3nc(C(=O)O)cs3)c2CC2CC2)c1"
  Assay system: "UniProtKB P00338"
  IC50: "1000 to 57000 nM"
- Compound structure string: "NS(=O)(=O)c1ccc(Cc2c(-c3cccc(-c4ccc(F)cc4)c3)nn(-c3nc(C(=O)O)cs3)c2C2CC2)cc1F"
  Assay system: "UniProtKB P00338"
  IC50: "< 100 nM"
- Compound structure string: "N#CC#Cc1cc(-c2nn(-c3nc(C(=O)O)cs3)c(CC3CC3)c2Cc2ccc(S(N)(=O)=O)c(F)c2)ccc1F"
  Assay system: "UniProtKB P00338"
  IC50: "< 100 nM"
- Compound structure string: "CCOC(=O)c1csc(-n2nc(-c3cccc(-c4ccccc4)c3)c(Cc3ccc(S(N)(=O)=O)c(F)c3)c2CC2CC2)n1"
  Assay system: "UniProtKB P00338"
  IC50: "> 57000 nM"
- Compound structure string: "NS(=O)(=O)c1ccc(Cc2c(-c3ccc(F)c(C#CC(F)F)c3)nn(-c3nc(C(=O)O)cs3)c2CC2CC2)cc1F"
  Assay system: "UniProtKB P00338"
  IC50: "< 100 nM"
- Compound structure string: "NS(=O)(=O)c1ccc(Cc2c(-c3cccc(OCc4ccccc4)c3)nn(-c3nc(C(=O)O)cs3)c2CC2CC2)c(F)c1"
  Assay system: "UniProtKB P00338"
  IC50: "< 100 nM"
- Compound structure string: "NS(=O)(=O)c1ccc(Cc2cn(-c3nc(C(=O)O)cs3)nc2-c2cccc(-c3cccnc3)c2)cc1"
  Assay system: "UniProtKB P00338"
  IC50: "100 to 1000 nM"
- Compound structure string: "CCOC(=O)c1csc(-n2nc(-c3cccc(-c4ccc(C)cc4)c3)c(Cc3ccc(S(N)(=O)=O)cc3F)c2CC2CC2)n1"
  Assay system: "UniProtKB P00338"
  IC50: "> 57000 nM"
- Compound structure string: "N[S+](=O)([O-])c1ccc(Cc2c(-c3ccc(F)c(C#CCC4CCCC4)c3)nn(-c3nc(C(=O)O)cs3)c2CC2CC2)cc1F"
  Assay system: "UniProtKB P00338"
  IC50: "< 100 nM"
- Compound structure string: "NS(=O)(=O)c1ccc(Cc2c(-c3ccc(F)c(C#CC4(O)COC4)c3)nn(-c3nc(C(=O)O)cs3)c2CC2CC2)cc1F"
  Assay system: "UniProtKB P00338"
  IC50: "< 100 nM"
- Compound structure string: "Cc1ccc(-c2cc(-c3nn(-c4nc(C(=O)O)cs4)c(C4CC4)c3Cc3ccc(S(N)(=O)=O)cc3)ccc2F)cc1"
  Assay system: "UniProtKB P00338"
  IC50: "< 100 nM"
- Compound structure string: "NS(=O)(=O)c1ccc(Cc2c(-c3ccc(F)c(C#CC4(F)CCCC4)c3)nn(-c3nc(C(=O)O)cs3)c2CC2CC2)cc1F"
  Assay system: "UniProtKB P00338"
  IC50: "< 100 nM"
- Compound structure string: "Nc1cccc(-c2cccc(-c3nn(-c4nc(C(=O)O)cs4)cc3Cc3ccc(S(N)(=O)=O)cc3)c2)c1"
  Assay system: "UniProtKB P00338"
  IC50: "100 to 1000 nM"
- Compound structure string: "CCOC(=O)c1csc(-n2nc(-c3ccc(F)c(C#CC4CCCC4)c3)c(Cc3ccc(S(N)(=O)=O)c(F)c3)c2C2CC2)n1"
  Assay system: "UniProtKB P00338"
  IC50: "1000 to 57000 nM"
- Compound structure string: "NS(=O)(=O)c1ccc(Cc2c(-c3cccc(-c4cccc(F)c4)c3)nn(-c3nc(C(=O)O)cs3)c2C2CC2)cc1F"
  Assay system: "UniProtKB P00338"
  IC50: "< 100 nM"
- Compound structure string: "Cc1ccc(C#Cc2cccc(-c3nn(-c4nc(C(=O)O)cs4)c(CC4CC4)c3Cc3ccc(S(N)(=O)=O)c(F)c3)c2)s1"
  Assay system: "UniProtKB P00338"
  IC50: "< 100 nM"
- Compound structure string: "C/C=C/c1cc(-c2nn(-c3nc(C(=O)O)cs3)c(CC3CC3)c2Cc2ccc(S(N)(=O)=O)c(F)c2)ccc1F"
  Assay system: "UniProtKB P00338"
  IC50: "< 100 nM"
- Compound structure string: "N[S+](=O)([O-])c1ccc(Cc2c(-c3ccc(F)c(C#CCN4CCCC4)c3)nn(-c3nc(C(=O)O)cs3)c2CC2CC2)cc1F"
  Assay system: "UniProtKB P00338"
  IC50: "< 100 nM"
- Compound structure string: "NS(=O)(=O)c1ccc(Cc2c(-c3ccc(F)c(C4=CCCC4)c3)nn(-c3nc(C(=O)O)cs3)c2CC2CC2)cc1F"
  Assay system: "UniProtKB P00338"
  IC50: "< 100 nM"
- Compound structure string: "CC(C)Oc1cccc(-c2nn(-c3nc(C(=O)O)cs3)cc2Cc2ccc(S(N)(=O)=O)cc2)c1"
  Assay system: "UniProtKB P00338"
  IC50: "< 100 nM"
- Compound structure string: "NS(=O)(=O)c1ccc(Cc2c(-c3cccc(Oc4ccc(C(F)(F)F)cc4)c3)nn(-c3nc(C(=O)O)cs3)c2CC2CC2)cc1"
  Assay system: "UniProtKB P00338"
  IC50: "< 100 nM"
- Compound structure string: "Cc1ccc(Oc2cc(-c3nn(-c4nc(C(=O)O)cs4)c(CC4CC4)c3Cc3ccc(S(N)(=O)=O)c(F)c3)ccc2F)cc1"
  Assay system: "UniProtKB P00338"
  IC50: "< 100 nM"

----------
Quick list: IC50 per entry.
# Assay system: Human LDHA (Homo sapiens (Human), UniProt P00338)
# Experimental details: human LDHA primary biochemical assay (resazurin/diaphorase coupled, fluorescence)
# Measurement conditions: LDHA inhibitory activity, assay of Example 1; activity level classes
# Description: Test compounds were placed in a Greiner Bio-One (Monroe, N.C.) 1536-well black solid bottom assay plate. 200 millimolar (mM) Tris HCl, pH 7.4, 100 micromolar […] EDTA and 0.01% TWEEN-20™, final concentration, was used as the assay buffer. The LDHA reagent was 2 nanomolar (nM) Human LDHA (Meridian Life Science, Inc., Memphis, Tenn.), final concentration, in assay buffer.
Measured metric: IC50

- Compound: "O=C(O)c1csc(-n2cc(Cc3ccc(C(F)(F)F)cc3)c(-c3ccccc3)n2)n1 [Compound 28]"
  Result: "> 57 µM"
- Compound: "O=C(O)c1csc(-n2nc(-c3ccc(NS(=O)(=O)C4CC4)c(F)c3)cc2O)n1 [Compound 111]"
  Result: "> 57 µM"
- Compound: "O=C(O)c1csc(-n2nc(-c3ccc(F)c(F)c3)cc2CO)n1 [Compound 64]"
  Result: "> 57 µM"
- Compound: "CC(C)(C)OC(=O)c1csc(-n2nc(-c3ccc(F)c(F)c3)c(-c3ccccc3)c2O)n1 [Compound 118]"
  Result: "> 57 µM"
- Compound: "COC(=O)c1cnc(-n2nc(-c3ccccc3)c(Cc3ccc(S(N)(=O)=O)cc3)c2N)nc1C(F)(F)F [Compound 190]"
  Result: "> 57 µM"
- Compound: "CC(C)C(=O)OCOC(=O)c1csc(-n2nc(-c3ccc(F)c(F)c3)cc2O)n1 [Compound 109]"
  Result: "> 57 µM"
- Compound: "CS(=O)(=O)c1cc(-c2cc(O)n(-c3nc(C(=O)O)cs3)n2)ccc1F [Compound 94]"
  Result: "> 57 µM"
- Compound: "CCOC(=O)OC(C)OC(=O)c1csc(-n2nc(-c3ccc(F)c(F)c3)cc2O)n1 (stereo not drawn) [Compound 105]"
  Result: "> 57 µM"
- Compound: "Cc1ccc(-c2cc(-c3nn(-c4nc(C(=O)O)cs4)c(CC4CC4)c3Cc3ccc(S(N)(=O)=O)cc3F)ccc2F)cc1 [Compound 307]"
  Result: "< 0.1 µM"
- Compound: "CCOC(=O)c1csc(-n2nc(-c3ccccc3)c(Oc3ccc([S+](N)(=O)[O-])cc3)c2C2CCCCC2)n1 [Compound 274]"
  Result: "> 57 µM"
- Compound: "O=C(O)c1csc(-n2cc(-c3ccc(F)c(F)c3)c3cccnc32)n1 [Compound 23]"
  Result: "> 57 µM"
- Compound: "O=C(O)c1csc(-n2nc(-c3ccc(F)c(Cc4ccccc4)c3)cc2O)n1 [Compound 104]"
  Result: "> 57 µM"
- Compound: "Cc1ccc(-c2cccc(-c3nn(-c4nc(C(=O)O)cs4)c(C(F)(F)F)c3Cc3ccc(S(N)(=O)=O)cc3)c2)cc1 [Compound 311]"
  Result: "< 0.1 µM"
- Compound: "NS(=O)(=O)c1ccc(Cc2cn(-c3csc4c(=O)[nH]cnc34)nc2-c2ccccc2)cc1 [Compound 210]"
  Result: "> 57 µM"
- Compound: "N[S+](=O)([O-])c1ccc(Cc2c(-c3ccc(F)c(-c4ccc(F)cc4)c3)nn(-c3nc(C(=O)O)cs3)c2CC2CC2)c(F)c1 [Compound 309]"
  Result: "< 0.1 µM"
